These data points were gathered from patent US20170022171A1.

# ASSAYED_TARGET: human macrophage elastase (HME/hMMP-12) (Homo sapiens)
# Construct: 0.5 nM HME
# PROCEDURE_TEXT: In vitro HME inhibition test (standard or high-sensitivity)
# CONDITION_INFO: in some cases mean values
ASSAY_ENDPOINT: pIC50
pIC50 here: minus log base 10 of the concentration, concentration in moles per litre.

Form: Entry = CCCCCCOc1ccc(C(=O)[C@H]2CC[C@@H](Cn3nnc4ccc(C)cc4c3=O)[C@@H]2C(=O)O)cc1 (racemic) | System = human macrophage elastase (HME/hMMP-12) (Homo sapiens) | pIC50 = ____
10.00

Form: Entry = O=C(O)[C@@H]1[C@@H](Cn2nnc3ccc(C(F)(F)F)cc3c2=O)CC[C@H]1C(=O)c1ccc(OCc2cccc(N3CCOC3=O)c2)cc1 (single isomer, unassigned) [Example 34] | System = human macrophage elastase (HME/hMMP-12) (Homo sapiens) | pIC50 = ____
6.80

Form: Entry = O=C(O)[C@H]1[C@H](Cn2nnc3ccc(C(F)(F)F)cc3c2=O)CC[C@@H]1C(=O)c1ccc(OCCCC2CCCCC2)cc1 (racemic) | System = human macrophage elastase (HME/hMMP-12) (Homo sapiens) | pIC50 = ____
9.70

Form: Entry = CCCCCCOc1ccc(C(=O)[C@@H]2CC[C@H](Cn3nnc4ccc(C)cc4c3=O)[C@H]2C(=O)O)cc1 (single isomer, unassigned) [Example 121] | System = human macrophage elastase (HME/hMMP-12) (Homo sapiens) | pIC50 = ____
10.11

Form: Entry = O=C(O)[C@@H]1[C@@H](Cn2nnc3ccc(C(F)(F)F)cc3c2=O)CC[C@H]1C(=O)c1ccc(OCCc2ccccc2)cc1 (single isomer, unassigned) [Example 37] | System = human macrophage elastase (HME/hMMP-12) (Homo sapiens) | pIC50 = ____
10.10

Form: Entry = CCCCCSc1ccc(C(=O)[C@H]2CC[C@@H](Cn3nnc4ccc(C(F)(F)F)cc4c3=O)[C@@H]2C(=O)O)cc1 (racemic) | System = human macrophage elastase (HME/hMMP-12) (Homo sapiens) | pIC50 = ____
10.64

Form: Entry = O=C(O)[C@H]1[C@H](Cn2nnc3ccc(C(F)(F)F)cc3c2=O)CC[C@@H]1C(=O)c1ccc(OCC2CCC2)cc1 (racemic) | System = human macrophage elastase (HME/hMMP-12) (Homo sapiens) | pIC50 = ____
10.47

Form: Entry = O=C(O)[C@@H]1[C@@H](Cn2nnc3ccc(C(F)(F)F)cc3c2=O)CC[C@H]1C(=O)c1ccc(SCc2ccccc2)cc1 (single isomer, unassigned) [Example 75] | System = human macrophage elastase (HME/hMMP-12) (Homo sapiens) | pIC50 = ____
10.29

Form: Entry = O=C(O)[C@H]1[C@H](Cn2nnc3ccc(C(F)(F)F)cc3c2=O)CC[C@@H]1C(=O)c1ccc(OCC2CCCCC2)cc1 (racemic) | System = human macrophage elastase (HME/hMMP-12) (Homo sapiens) | pIC50 = ____
10.32

Form: Entry = O=C(O)[C@@H]1[C@@H](Cn2nnc3ccc(C(F)(F)F)cc3c2=O)CC[C@H]1C(=O)c1ccc(OCc2cccc(C(F)(F)F)c2)cc1 (single isomer, unassigned) [Example 19] | System = human macrophage elastase (HME/hMMP-12) (Homo sapiens) | pIC50 = ____
10.57

Form: Entry = O=C(O)[C@@H]1[C@@H](Cn2nnc3ccc(C(F)(F)F)cc3c2=O)CC[C@H]1C(=O)c1ccc(OCC2CCC2)cc1 (single isomer, unassigned) [Example 47] | System = human macrophage elastase (HME/hMMP-12) (Homo sapiens) | pIC50 = ____
10.60

Form: Entry = O=C(O)[C@H]1[C@H](Cn2nnc3ccccc3c2=O)CC[C@@H]1C(=O)c1ccc(OCc2ccc(F)cc2)cc1 (racemic) | System = human macrophage elastase (HME/hMMP-12) (Homo sapiens) | pIC50 = ____
10.28

====

ASSAY_ENDPOINT: pIC50
pIC50 here: minus log base 10 of the concentration, concentration in moles per litre.

Form: Entry = O=C(O)[C@H]1[C@H](Cn2nnc3ccccc3c2=O)CC[C@@H]1C(=O)c1ccc(OCc2ccc(Cl)c(Cl)c2)cc1 (racemic) | System = mouse MMP-12 (Mus musculus, UniProt P34960) | pIC50 = ____
8.15

Form: Entry = O=C(O)[C@@H]1[C@@H](Cn2nnc3ccc(C(F)(F)F)cc3c2=O)CC[C@H]1C(=O)c1ccc(SCc2ccc(Cl)c(Cl)c2)cc1 (single isomer, unassigned) | System = mouse MMP-12 (Mus musculus, UniProt P34960) | pIC50 = ____
8.37

Form: Entry = CCCCCOc1ccc(C(=O)[C@H]2CC[C@@H](Cn3nnc4ccc(C)cc4c3=O)[C@@H]2C(=O)O)cc1 (racemic) | System = mouse MMP-12 (Mus musculus, UniProt P34960) | pIC50 = ____
8.31

Form: Entry = Cc1cccc(COc2ccc(C(=O)[C@@H]3CC[C@H](Cn4nnc5ccc(C)cc5c4=O)[C@H]3C(=O)O)cc2)c1 (single isomer, unassigned) | System = mouse MMP-12 (Mus musculus, UniProt P34960) | pIC50 = ____
8.92

Form: Entry = O=C(O)[C@H]1[C@H](Cn2nnc3ccc(C(F)(F)F)cc3c2=O)CC[C@@H]1C(=O)c1ccc(OCCCc2ccccc2)cc1 (racemic) | System = mouse MMP-12 (Mus musculus, UniProt P34960) | pIC50 = ____
7.96

Form: Entry = O=C(O)[C@H]1[C@H](Cn2nnc3ccc(C(F)(F)F)cc3c2=O)CC[C@@H]1C(=O)c1ccc(OCCCC2CCCCC2)cc1 (racemic) | System = mouse MMP-12 (Mus musculus, UniProt P34960) | pIC50 = ____
7.68

Form: Entry = O=C(O)[C@@H]1[C@@H](Cn2nnc3ccc(C(F)(F)F)cc3c2=O)CC[C@H]1C(=O)c1ccc(SCc2cccc(Cl)c2)cc1 (single isomer, unassigned) | System = mouse MMP-12 (Mus musculus, UniProt P34960) | pIC50 = ____
8.70

====

ASSAY_ENDPOINT: log10(IC50) (log10 of the value in nM)
Plainly stated, the numbers are log10 of IC50 given in nM.

Form: Entry = Cc1ccc2nnn(C[C@H]3CC[C@@H](C(=O)c4ccc(OCc5cccc(OC(F)(F)F)c5)cc4)[C@@H]3C(=O)O)c(=O)c2c1 (single isomer, unassigned) | System = mouse MMP-7 (Mus musculus, UniProt Q10738) | log10(IC50) = ____
2.34

Form: Entry = O=C(O)[C@H]1[C@H](Cn2nnc3ccccc3c2=O)CC[C@@H]1C(=O)c1ccc(OCCC2CCCCC2)cc1 (racemic) | System = mouse MMP-7 (Mus musculus, UniProt Q10738) | log10(IC50) = ____
2.20

Form: Entry = Cc1ccc2nnn(C[C@H]3CC[C@@H](C(=O)c4ccc(OCc5ccccc5)cc4)[C@@H]3C(=O)O)c(=O)c2c1 (single isomer, unassigned) | System = mouse MMP-7 (Mus musculus, UniProt Q10738) | log10(IC50) = ____
1.26

Form: Entry = O=C(O)[C@@H]1[C@@H](Cn2nnc3ccc(C(F)(F)F)cc3c2=O)CC[C@H]1C(=O)c1ccc(SCc2ccc(Cl)c(Cl)c2)cc1 (single isomer, unassigned) | System = mouse MMP-7 (Mus musculus, UniProt Q10738) | log10(IC50) = ____
2.11

Form: Entry = O=C(O)[C@H]1[C@H](Cn2nnc3ccccc3c2=O)CC[C@@H]1C(=O)c1ccc(OCc2cccc(Cl)c2)cc1 (racemic) | System = mouse MMP-7 (Mus musculus, UniProt Q10738) | log10(IC50) = ____
2.15

Form: Entry = O=C(O)[C@@H]1[C@@H](Cn2nnc3ccc(C(F)(F)F)cc3c2=O)CC[C@H]1C(=O)c1ccc(SCc2cccc(Cl)c2)cc1 (single isomer, unassigned) | System = mouse MMP-7 (Mus musculus, UniProt Q10738) | log10(IC50) = ____
1.73

====

So I've got a bunch of molecules here, and I need their pIC50 values.
# ASSAYED_TARGET: human macrophage elastase (HME/hMMP-12) (Homo sapiens, UniProt P39900)
# Construct: 0.5 nM HME
# Sequence (P39900 106-470): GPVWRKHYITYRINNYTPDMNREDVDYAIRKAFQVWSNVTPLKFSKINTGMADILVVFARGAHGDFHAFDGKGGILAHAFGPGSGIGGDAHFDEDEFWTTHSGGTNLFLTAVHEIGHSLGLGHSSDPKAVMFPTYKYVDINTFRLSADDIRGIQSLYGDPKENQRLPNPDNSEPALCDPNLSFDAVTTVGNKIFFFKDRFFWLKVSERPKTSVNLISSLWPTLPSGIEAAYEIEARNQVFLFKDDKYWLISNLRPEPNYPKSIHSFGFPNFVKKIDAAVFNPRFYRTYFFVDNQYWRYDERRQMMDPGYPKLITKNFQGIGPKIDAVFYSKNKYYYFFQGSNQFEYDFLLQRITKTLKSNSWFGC
# PROCEDURE_TEXT: In vitro HME inhibition test (standard or high-sensitivity)
# CONDITION_INFO: in some cases mean values
pIC50 here: minus log base 10 of the concentration, concentration in moles per litre.

Field request: pIC50 | item: CCCCOc1ccc(C(=O)[C@H]2CC[C@@H](Cn3nnc4ccc(C(F)(F)F)cc4c3=O)[C@@H]2C(=O)O)cc1 (racemic) [Example 66]
10.37

Field request: pIC50 | item: Cc1ccc2nnn(C[C@H]3CC[C@@H](C(=O)c4ccc(OCc5cccc(Cl)c5)cc4)[C@@H]3C(=O)O)c(=O)c2c1 (single isomer, unassigned) [Example 104]
9.92

Field request: pIC50 | item: O=C(O)[C@@H]1[C@@H](Cn2nnc3ccc(C(F)(F)F)cc3c2=O)CC[C@H]1C(=O)c1ccc(OCC2CCCCC2)cc1 (single isomer, unassigned) [Example 41]
11.00

Field request: pIC50 | item: O=C(O)[C@H]1[C@H](Cn2nnc3ccc(C(F)(F)F)cc3c2=O)CC[C@@H]1C(=O)c1ccc(OCc2ccc(Cl)cc2)cc1 (racemic) [Example 24]
10.82

Field request: pIC50 | item: CCCCOc1ccc(C(=O)[C@H]2CC[C@@H](Cn3nnc4ccccc4c3=O)[C@@H]2C(=O)O)cc1 (racemic) [Example 10]
9.44

Field request: pIC50 | item: O=C(O)[C@@H]1[C@@H](Cn2nnc3ccc(C(F)(F)F)cc3c2=O)CC[C@H]1C(=O)c1ccc(OCCc2ccccc2)cc1 (single isomer, unassigned) [Example 38]
6.46

Field request: pIC50 | item: CCCCCOc1ccc(C(=O)[C@@H]2CC[C@H](Cn3nnc4ccccc4c3=O)[C@H]2C(=O)O)cc1 (single isomer, unassigned) [Example 8]
9.68

Field request: pIC50 | item: CCCCCCOc1ccc(C(=O)[C@H]2CC[C@@H](Cn3nnc4ccccc4c3=O)[C@@H]2C(=O)O)cc1 (racemic) [Example 6]
9.77

Field request: pIC50 | item: CCCCCCOc1ccc(C(=O)[C@@H]2CC[C@H](Cn3nnc4ccc(C)cc4c3=O)[C@H]2C(=O)O)cc1 (single isomer, unassigned) [Example 122]
6.72

Field request: pIC50 | item: CCCCOc1ccc(C(=O)[C@@H]2CC[C@H](Cn3nnc4ccc(C(F)(F)F)cc4c3=O)[C@H]2C(=O)O)cc1 (single isomer, unassigned) [Example 67]
10.82

Field request: pIC50 | item: CCCOc1ccc(C(=O)[C@@H]2CC[C@H](Cn3nnc4ccc(C(F)(F)F)cc4c3=O)[C@H]2C(=O)O)cc1 (single isomer, unassigned) [Example 70]
10.51

Field request: pIC50 | item: Cc1cccc(COc2ccc(C(=O)[C@@H]3CC[C@H](Cn4nnc5ccc(C(F)(F)F)cc5c4=O)[C@H]3C(=O)O)cc2)c1 (single isomer, unassigned) [Example 17]
7.32

Field request: pIC50 | item: Cc1ccc2nnn(C[C@@H]3CC[C@H](C(=O)c4ccc(OCc5cccc(Cl)c5)cc4)[C@H]3C(=O)O)c(=O)c2c1 (racemic) [Example 103]
10.00

Field request: pIC50 | item: O=C(O)[C@H]1[C@H](Cn2nnc3ccc(C(F)(F)F)cc3c2=O)CC[C@@H]1C(=O)c1ccc(SCc2ccccc2)cc1 (racemic) [Example 73]
9.77

Field request: pIC50 | item: CCCCCOc1ccc(C(=O)[C@@H]2CC[C@H](Cn3nnc4ccc(C)cc4c3=O)[C@H]2C(=O)O)cc1 (single isomer, unassigned) [Example 125]
8.17

Field request: pIC50 | item: CCCCCOc1ccc(C(=O)[C@@H]2CC[C@H](Cn3nnc4ccc(C(F)(F)F)cc4c3=O)[C@H]2C(=O)O)cc1 (single isomer, unassigned) [Example 64]
10.17

Field request: pIC50 | item: COC(=O)Nc1cccc(COc2ccc(C(=O)[C@H]3CC[C@@H](Cn4nnc5ccc(C(F)(F)F)cc5c4=O)[C@@H]3C(=O)O)cc2)c1 (stereo in doubt) [Example 30]
10.43

Field request: pIC50 | item: O=C(O)[C@@H]1[C@@H](Cn2nnc3ccc(C(F)(F)F)cc3c2=O)CC[C@H]1C(=O)c1ccc(OCc2ccc(F)cc2)cc1 (single isomer, unassigned) [Example 13]
10.74

Field request: pIC50 | item: Cc1ccc2nnn(C[C@H]3CC[C@@H](C(=O)c4ccc(OCCc5ccccc5)cc4)[C@@H]3C(=O)O)c(=O)c2c1 (single isomer, unassigned) [Example 113]
9.62

Field request: pIC50 | item: CCCCCCOc1ccc(C(=O)[C@@H]2CC[C@H](Cn3nnc4ccc(C(F)(F)F)cc4c3=O)[C@H]2C(=O)O)cc1 (single isomer, unassigned) [Example 58]
10.57

Field request: pIC50 | item: CC(C)COc1ccc(C(=O)[C@H]2CC[C@@H](Cn3nnc4ccc(C(F)(F)F)cc4c3=O)[C@@H]2C(=O)O)cc1 (racemic) [Example 72]
9.89

Field request: pIC50 | item: Cc1ccc2nnn(C[C@H]3CC[C@@H](C(=O)c4ccc(OCc5ccc(F)cc5)cc4)[C@@H]3C(=O)O)c(=O)c2c1 (single isomer, unassigned) [Example 95]
10.60
